# System: NS5A chimeric genotype 1b Con1 replicon with genotype 3a S52 strain NS5A gene
# MEASUREMENT_NOTES: Replicon assay, genotype 3a NS5A chimera
# Format: cell-based, HCV
# EXPERIMENTAL_SETUP: Hepatitis C virus, read-out: 3a (s), (s); activity range
Assign EC50 to each entry below.

**Query** Name the recorded EC50 for COC(=O)N[C@H](C(=O)N1C[C@H]2C[C@H]2[C@H]1c1ncc(-c2ccc3c(c2)COc2cc4c(ccc5nc([C@@H]6CC[C@H](C)N6C(=O)[C@@H](NC(=O)OC)C(C)C)[nH]c54)cc2-3)[nH]1)C(C)C [HR] .
**Result** < 0.1 nM

**Query** Name the recorded EC50 for COC(=O)N[C@H](C(=O)N1[C@@H](C)CC[C@H]1c1ncc(-c2ccc3c(c2)COc2cc4c(ccc5nc([C@@H]6CC[C@H](C)N6C(=O)[C@@H](NC(=O)OC)C6CCCCC6)[nH]c54)cc2-3)[nH]1)C(C)C [HE] .
**Result** < 0.1 nM

**Query** Name the recorded EC50 for COC(=O)N[C@H](C(=O)N1[C@@H](C)CC[C@H]1c1ncc(-c2ccc3c(c2)COc2cc4c(ccc5nc([C@@H]6CC[C@H](C(C)C)N6C(=O)[C@@H](NC(=O)OC)C6CCOCC6)[nH]c54)cc2-3)[nH]1)C(C)C [ID] .
**Result** 0.1 to 0.999 nM

**Query** Name the recorded EC50 for COC(=O)N[C@H](C(=O)N1[C@@H](C)CC[C@H]1c1ncc(-c2ccc3c(c2)COc2cc4c(ccc5nc([C@@H]6CC[C@H](C)N6C(=O)[C@@H](NC(=O)OC)C6CCOCC6)[nH]c54)cc2-3)[nH]1)C(C)C [FC] .
**Result** < 0.1 nM

----------
# Test system: Q30R in genotype 1a NS5A (1a Pi-Rluc replicon, Huh-7-derived cured-51 cells)
# MEASUREMENT_NOTES: Replicon assay against resistance mutant 1a Q30R
# Type: cell-based, HCV
# EXPERIMENTAL_SETUP: Hepatitis C virus, read-out: 1a Q30R
pEC50: −log10 of the molar value.
MEASURE: pEC50

**Query** API: value(readout= pEC50, system= Q30R in genotype 1a NS5A (1a Pi-Rluc replicon, Huh-7-derived cured-51 cells), query= CC[C@H](C)[C@H](NC(=O)OC)C(=O)N1[C@H](c2ncc(-c3ccc4c(c3)COc3cc5c(ccc6nc([C@@H]7CC[C@H](C)N7C(=O)[C@@H](NC(=O)OC)C7CCOCC7)[nH]c65)cc3-4)[nH]2)C[C@@H]2CCC[C@@H]21 )
**Result** > 10.00

**Query** API: value(readout= pEC50, system= Q30R in genotype 1a NS5A (1a Pi-Rluc replicon, Huh-7-derived cured-51 cells), query= COC(=O)N[C@H](C(=O)N1[C@@H](C)CC[C@H]1c1ncc(-c2ccc3c(c2)COc2cc4c(ccc5nc([C@@H]6CC[C@H](C)N6C(=O)[C@@H](NC(=O)OC)[C@@H](C)OC(C)(C)C)[nH]c54)cc2-3)[nH]1)C(C)C )
**Result** 9.00 to 10.00

**Query** API: value(readout= pEC50, system= Q30R in genotype 1a NS5A (1a Pi-Rluc replicon, Huh-7-derived cured-51 cells), query= COC(=O)N[C@H](C(=O)N1[C@@H](C)CC[C@H]1c1nc(Cl)c(-c2ccc3c(c2)COc2cc4c(ccc5nc([C@@H]6CC[C@H](C)N6C(=O)[C@@H](NC(=O)OC)[C@@H](C)OC)[nH]c54)cc2-3)[nH]1)[C@@H](C)OC )
**Result** > 10.00

**Query** API: value(readout= pEC50, system= Q30R in genotype 1a NS5A (1a Pi-Rluc replicon, Huh-7-derived cured-51 cells), query= COC[C@H](NC(=O)OC)C(=O)N1[C@@H](C)CC[C@H]1c1nc2ccc3cc4c(cc3c2[nH]1)OCc1cc(-c2cnc([C@@H]3CC[C@H](C)N3C(=O)[C@@H](NC(=O)OC)C(C)C)[nH]2)ccc1-4 )
**Result** 9.00 to 10.00
